Please respond with reported CC50 at 72 h for every item in the list.
# Assay explanation: Cytotoxicity against human MT4 cells after 72 hrs by XTT assay
# Type: cell-based
One number for each entry, in µM.

Go through the list and state CC50 at 72 h for each entry.
1. Cc1cc(Nc2ccc(C(=O)NCCF)c(F)c2)nc(-c2cccnc2)n1
2. Cc1cc(Nc2ccc(C(=O)NCCF)cc2)nc(-c2cccnc2)n1

Response:
[35, 44]

Go through the list and state CC50 at 72 h for each entry.
1. CC(=O)c1cccc(Nc2cc(C)nc(-c3cccnc3)n2)c1
2. CC(=O)c1ccc(Nc2cc(C)nc(-c3cccnc3)n2)cc1

Response:
[64, 77]

----------
# Assay explanation: Solubility of compound in PBS by UV spectral analysis
# Type: physicochemical
Assay readout: solubility (µM)
Give bare numbers, in µM.

# example entries with known answers
CC(=O)c1ccc(Nc2cc(C)nc(-c3cccnc3)n2)cc1F
32
CCOC(=O)c1ccccc1Nc1ccnc(-c2cccnc2)n1
94
Cc1cc(Nc2ccc(C(=O)NCCF)cc2F)nc(-c2cccnc2)n1
50
CC(=O)c1ccc(Nc2ccnc(-c3ccncc3)n2)cc1
37
CC(=O)c1ccc(Nc2ccnc(-c3cccnc3)n2)cc1
98
CCOC(=O)c1ccc(Nc2ccnc(-c3cccnc3)n2)c(F)c1
53
CC(=O)c1cccc(Nc2ccnc(-c3cccnc3)n2)c1
97
O=C(NCCF)c1ccc(Nc2ccnc(-c3cccnc3)n2)cc1F
84
O=C(NCCF)c1ccc(Nc2ccnc(-c3ccncc3)n2)cc1
97
Cc1cc(Nc2ccc(C(=O)NCCF)cc2)nc(-c2cccnc2)n1
99

With those in mind, consider the next compound.
Prompt: Look up solubility for this compound: `CC(=O)c1cc(Nc2cc(C)nc(-c3ccncc3)n2)ccc1F`
Response: 23

----------
# Assay explanation: Solubility of compound in PBS by UV spectral analysis
# Type: physicochemical
Assay readout: solubility (µM)
Give bare numbers, in µM.

Cc1cc(Nc2ccc(C(=O)NCCF)c(F)c2)nc(-c2cccnc2)n1
98
O=C(NCCF)c1ccc(Nc2ccnc(-c3cccnc3)n2)c(F)c1
96

Go through the list and state solubility for each entry.
1. CCOC(=O)c1ccc(Nc2ccnc(-c3ccncc3)n2)cc1
2. CCOC(=O)c1cccc(Nc2ccnc(-c3ccncc3)n2)c1
3. CC(=O)c1ccc(Nc2cc(C)nc(-c3ccncc3)n2)cc1
4. O=C(NCCF)c1ccc(Nc2ccnc(-c3cccnc3)n2)cc1

Response:
[52, 46, 6, 99]

Go through the list and state solubility for each entry.
1. CCOC(=O)c1cccc(Nc2ccnc(-c3cccnc3)n2)c1
2. Cc1cc(Nc2ccc(C(=O)N3CCN(c4ccc(F)cc4)CC3)cc2)nc(-c2cccnc2)n1
3. Cc1cc(Nc2ccc(C(=O)N3CCN(C(=O)C4CCCO4)CC3)cc2)nc(-c2cccnc2)n1 (stereo not drawn)
4. CC(=O)c1ccc(Nc2cc(C)nc(-c3cccnc3)n2)cc1
5. CC(=O)c1cc(Nc2cc(C)nc(-c3cccnc3)n2)ccc1F
6. Cc1cc(Nc2ccc(C(=O)NCCF)c(F)c2)nc(-c2ccncc2)n1

Response:
92
42
99
94
40
9

Prompt: Look up solubility for this compound: `CC(=O)c1cccc(Nc2cc(C)nc(-c3ccncc3)n2)c1`
Response: 29

----------
# Assayed target: Structural capsid protein (Human immunodeficiency virus 1, UniProt Q76129)
# Sequence (Q76129 whole entry): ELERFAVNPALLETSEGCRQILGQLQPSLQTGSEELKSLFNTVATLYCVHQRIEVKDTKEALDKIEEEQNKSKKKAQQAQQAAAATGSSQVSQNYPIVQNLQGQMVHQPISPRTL
Please respond with reported IC50 for every item in the list.
Answers are plain numbers, in µM.

# example entries with known answers
CCOC(=O)c1cccc(Nc2ccnc(-c3cccnc3)n2)c1
21
CCOC(=O)c1ccc(Nc2ccnc(-c3cccnc3)n2)c(F)c1
30
Cc1cc(Nc2ccc(C(=O)N3CCN(C(=O)C4CCCO4)CC3)cc2)nc(-c2cccnc2)n1 (stereo not given)
54
CC(=O)c1ccc(Nc2cc(C)nc(-c3cccnc3)n2)cc1F
25

Go through the list and state IC50 for each entry.
1. CC(=O)c1ccc(Nc2ccnc(-c3cccnc3)n2)cc1
2. Fc1ccc(Nc2ccnc(-c3cccnc3)n2)cc1F
3. CC(=O)c1ccc(Nc2cc(C)nc(-c3cccnc3)n2)cc1
4. Cc1cc(Nc2cc(F)c(F)c(F)c2)nc(-c2cccnc2)n1
5. O=C(NCCF)c1cc(Nc2ccnc(-c3cccnc3)n2)ccc1F

Response:
1. 53
2. 38
3. 12
4. 22
5. 68

----------
# Assay explanation: Solubility of compound in PBS by UV spectral analysis
# Assay type: physicochemical
Please respond with reported solubility for every item in the list.
Answers are plain numbers, in µM.

# example entries with known answers
Fc1ccc(Nc2ccnc(-c3cccnc3)n2)cc1F
67
CCOC(=O)c1ccc(Nc2cc(C)nc(-c3ccncc3)n2)cc1
4
Fc1ccc(Nc2ccnc(-c3ccncc3)n2)cc1F
42
CC(=O)c1cccc(Nc2cc(C)nc(-c3cccnc3)n2)c1
95
Cc1cc(Nc2cc(F)c(F)c(F)c2)nc(-c2cccnc2)n1
73

Go through the list and state solubility for each entry.
1. Cc1cc(Nc2cc(C(=O)NCCF)ccc2F)nc(-c2cccnc2)n1
2. Cc1cc(Nc2ccc(C(=O)NCCF)cc2)nc(-c2ccncc2)n1
3. O=C(NCCF)c1cc(Nc2ccnc(-c3cccnc3)n2)ccc1F
4. CCOC(=O)c1ccc(Nc2cc(C)nc(-c3cccnc3)n2)cc1

Response:
1. 98
2. 40
3. 97
4. 71

Go through the list and state solubility for each entry.
1. CC(=O)c1ccc(F)c(Nc2cc(C)nc(-c3cccnc3)n2)c1
2. CCOC(=O)c1ccc(Nc2ccnc(-c3cccnc3)n2)cc1

Response:
1. 58
2. 61

----------
Please respond with reported pIC50 for every item in the list.
# Assayed target: Structural capsid protein (Human immunodeficiency virus 1)
One number for each entry, as −log10 of the molar value.

# example entries with known answers
CC(=O)c1cccc(Nc2cc(C)nc(-c3cccnc3)n2)c1
5.00
CC(=O)c1cc(Nc2cc(C)nc(-c3cccnc3)n2)ccc1F
5.05
Fc1ccc(Nc2ccnc(-c3ccncc3)n2)cc1F
4.09
CCOC(=O)c1ccc(Nc2cc(C)nc(-c3ccncc3)n2)cc1
4.44

Go through the list and state pIC50 for each entry.
1. CC(=O)c1cccc(Nc2ccnc(-c3cccnc3)n2)c1
2. Cc1cc(Nc2ccc(C(=O)NCCF)c(F)c2)nc(-c2cccnc2)n1
3. Cc1cc(Nc2ccc(C(=O)NCCF)cc2F)nc(-c2cccnc2)n1
4. CC(=O)c1cc(Nc2cc(C)nc(-c3ccncc3)n2)ccc1F
5. CCOC(=O)c1ccc(Nc2cc(C)nc(-c3cccnc3)n2)cc1
6. CCOC(=O)c1ccc(Nc2ccnc(-c3ccncc3)n2)cc1

Response:
4.41
5.52
4.82
4.08
4.68
4.55

Go through the list and state pIC50 for each entry.
1. CC(=O)c1ccc(Nc2cc(C)nc(-c3ccncc3)n2)cc1
2. Cc1cc(Nc2cc(C(=O)NCCF)ccc2F)nc(-c2cccnc2)n1
3. O=C(NCCF)c1ccc(Nc2ccnc(-c3cccnc3)n2)cc1F

Response:
4.27
4.28
4.37

----------
Recorded IC50 values (Structural capsid protein (Human immunodeficiency virus 1)) are given below.

# example entries with known answers
CCOC(=O)c1cccc(Nc2ccnc(-c3ccncc3)n2)c1
> 100 µM
CC(=O)c1ccc(Nc2ccnc(-c3ccncc3)n2)cc1
> 100 µM
CCOC(=O)c1ccccc1Nc1ccnc(-c2cccnc2)n1
> 100 µM
CC(=O)c1ccc(F)c(Nc2cc(C)nc(-c3cccnc3)n2)c1
> 100 µM

Go through the list and state IC50 for each entry.
1. Cc1cc(Nc2ccc(C(=O)NCCF)c(F)c2)nc(-c2ccncc2)n1
2. O=C(NCCF)c1ccc(Nc2ccnc(-c3ccncc3)n2)cc1
3. CC(=O)c1cccc(Nc2cc(C)nc(-c3ccncc3)n2)c1
4. CCOC(=O)c1ccc(Nc2ccnc(-c3cccnc3)n2)cc1
5. Cc1cc(Nc2ccc(C(=O)NCCF)cc2)nc(-c2cccnc2)n1
6. Cc1cc(Nc2ccc(C(=O)NCCF)cc2)nc(-c2ccncc2)n1
7. Cc1cc(Nc2ccc(C(=O)N3CCN(c4ccc(F)cc4)CC3)cc2)nc(-c2cccnc2)n1

Response:
["> 100 µM", "> 100 µM", "> 100 µM", "19 µM", "8 µM", "> 100 µM", "20 µM"]

Go through the list and state IC50 for each entry.
1. O=C(NCCF)c1ccc(Nc2ccnc(-c3cccnc3)n2)cc1
2. O=C(NCCF)c1ccc(Nc2ccnc(-c3cccnc3)n2)c(F)c1

Response:
["34 µM", "73 µM"]
